# Tested on: HL-60(TB) leukemia
# Protocol Notes: NCI-60 one-dose screen, 48 h
# Conditions Used: 10 µM unless noted
This is part of a sample that, as a whole, favours compounds with a hit. Of some 83,000 tested, about 20% had one in any assay. Active and inactive are the calls of the source. How the source made its calls: active means growth percent below 10; inactive means the rest.
Outcome field: choose from True = active, False = inactive

Examples with answers:
{"columns": ["Molecule", "Class Name"],
 "data": [
  ["CS/C(=C\\c1ccc(C(=O)c2ccc(C)cc2)n1C)S(C)=O (stereo not given)", "False"],
  ["[Ag].[Ag].[NH-]S(=O)(=O)c1ccc(N=Nc2cc(N=Nc3ccc(S([NH-])(=O)=O)cc3)c3c(NC(=O)C(Cl)Cl)cccc3c2OC(=O)C(Cl)Cl)cc1.[c-]1nccs1.[c-]1nccs1", "False"],
  ["S=C(c1ccc2c(c1)OCO2)N1CCN(c2ccccc2Cl)CC1", "False"]
]}

Turning to the following molecule.
Input: For O=C1NCCS(=O)(=O)/C1=C\C=C\c1cccc(C(F)(F)F)c1 , what call appears in the results of this test?
Output: True
